system under test: dopamine transporter (Homo sapiens, UniProt Q01959)
Construct: expressed in transfected cells; host or cells: HEK-293
Sequence (Q01959 whole entry): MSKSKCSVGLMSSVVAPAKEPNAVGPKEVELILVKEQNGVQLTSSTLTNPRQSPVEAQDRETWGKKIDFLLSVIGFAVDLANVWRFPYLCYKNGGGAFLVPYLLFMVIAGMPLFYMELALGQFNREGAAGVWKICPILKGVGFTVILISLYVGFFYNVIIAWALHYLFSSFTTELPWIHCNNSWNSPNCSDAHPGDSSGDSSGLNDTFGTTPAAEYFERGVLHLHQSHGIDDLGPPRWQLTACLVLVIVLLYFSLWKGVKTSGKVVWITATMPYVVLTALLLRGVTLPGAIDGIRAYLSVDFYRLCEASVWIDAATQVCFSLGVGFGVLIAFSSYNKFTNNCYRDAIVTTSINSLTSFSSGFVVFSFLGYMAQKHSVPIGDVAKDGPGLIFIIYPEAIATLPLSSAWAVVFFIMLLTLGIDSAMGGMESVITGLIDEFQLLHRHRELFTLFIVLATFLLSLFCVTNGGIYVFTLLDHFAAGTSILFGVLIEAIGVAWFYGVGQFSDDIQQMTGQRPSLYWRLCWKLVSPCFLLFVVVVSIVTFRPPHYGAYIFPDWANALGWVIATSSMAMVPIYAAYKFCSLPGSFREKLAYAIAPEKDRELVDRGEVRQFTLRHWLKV
test description: Dopamine reuptake inhibition in transporter-transfected HEK-293 cells ([3H]-DA)
Type: cell-based
condition: compound 1 μM; 20-30 nM [3H]-DA; relative to control without compound (100%), lower = more inhibition

[
  {
    "chemical structure": "O=C(NCCN1CCC(Cc2ccccc2)CC1)c1nc2ccccc2[nH]1",
    "Triple reuptake inhibition (Ratio %) DAT": "32.78%"
  },
  {
    "chemical structure": "O=C(NCCN1CCC(Cc2ccccc2)CC1)c1cc2cccnc2[nH]1",
    "Triple reuptake inhibition (Ratio %) DAT": "37.06%"
  },
  {
    "chemical structure": "O=C(NCCN1CCC(Cc2ccc(Cl)c(Cl)c2)CC1)c1ccc2cc(Br)ccc2c1",
    "Triple reuptake inhibition (Ratio %) DAT": "78.56%"
  },
  {
    "chemical structure": "O=C(NCCN1CCC(Cc2ccccc2)CC1)c1cc2cc(F)ccc2[nH]1",
    "Triple reuptake inhibition (Ratio %) DAT": "24.67%"
  },
  {
    "chemical structure": "O=C(NCCN1CCC(c2c[nH]c3ccccc23)CC1)c1cc2ccccc2[nH]1",
    "Triple reuptake inhibition (Ratio %) DAT": "38.64%"
  },
  {
    "chemical structure": "O=C(NCCN1CCC(Cc2ccccc2)CC1)c1cc2cc(Br)ccc2[nH]1",
    "Triple reuptake inhibition (Ratio %) DAT": "49.44%"
  },
  {
    "chemical structure": "O=C(NCCN1CCC(Cc2ccccc2)CC1)c1nc2ccccc2s1",
    "Triple reuptake inhibition (Ratio %) DAT": "39.32%"
  },
  {
    "chemical structure": "O=C(NC1(CN2CCC(Cc3ccccc3)CC2)CC1)c1cc2ccccc2[nH]1",
    "Triple reuptake inhibition (Ratio %) DAT": "86.48%"
  },
  {
    "chemical structure": "N#Cc1ccc2[nH]c(C(=O)NCCN3CCC(Cc4ccccc4)CC3)cc2c1",
    "Triple reuptake inhibition (Ratio %) DAT": "12.3%"
  }
]

----------
Recorded log10(IC50) for the following molecules
system under test: dopamine transporter (Homo sapiens)
Construct: expressed in transfected cells; host or cells: HEK-293
test description: Dopamine reuptake inhibition in transporter-transfected HEK-293 cells ([3H]-DA)
Format: cell-based
condition: concentration at which Ratio % is 50%; 6 concentrations 1 nM to 1 μM; read-out: Triple reuptake inhibition (IC50, μM) DAT
measurement kind: log10(IC50) (log10 of the value in µM)

[
  {
    "chemical structure": "O=C(NCCN1CCC(Cc2ccccc2)CC1)c1cc2cccnc2[nH]1",
    "log10(IC50)": 0.17
  },
  {
    "chemical structure": "O=C(NCCN1CCC(Cc2ccccc2)CC1)c1nc2ccccc2s1",
    "log10(IC50)": 0.42
  },
  {
    "chemical structure": "O=C(NCCN1CCC(Cc2ccc(Cl)c(Cl)c2)CC1)c1cc(Cl)cc(Cl)c1",
    "log10(IC50)": 0.63
  },
  {
    "chemical structure": "O=C(NCCN1CCC(Cc2ccccc2)CC1)c1nc2cc(O)ccc2[nH]1",
    "log10(IC50)": -0.44
  },
  {
    "chemical structure": "N#Cc1ccc2[nH]c(C(=O)NCCN3CCC(Cc4ccccc4)CC3)cc2c1",
    "log10(IC50)": -0.77
  },
  {
    "chemical structure": "O=C(NCCN1CCC(Cc2ccccc2)CC1)c1cc2cc(O)ccc2[nH]1",
    "log10(IC50)": -1.44
  },
  {
    "chemical structure": "O=C(NCCN1CCC(Cc2ccccc2)CC1)c1cc2cc(F)ccc2[nH]1",
    "log10(IC50)": -0.86
  },
  {
    "chemical structure": "Cn1c(C(=O)NCCN2CCC(Cc3ccccc3)CC2)cc2ccccc21",
    "log10(IC50)": -0.29
  },
  {
    "chemical structure": "O=C(NCCN1CCN(c2ccc(Cl)c(Cl)c2)CC1)c1cc2ccccc2[nH]1",
    "log10(IC50)": 0.90
  },
  {
    "chemical structure": "COc1ccc2[nH]c(C(=O)NCCN3CCC(Cc4ccccc4)CC3)cc2c1",
    "log10(IC50)": -0.48
  }
]

----------
system under test: norepinephrine transporter (Homo sapiens, UniProt P23975)
Construct: expressed in transfected cells; host or cells: HEK-293
Sequence (P23975 whole entry, species assumed): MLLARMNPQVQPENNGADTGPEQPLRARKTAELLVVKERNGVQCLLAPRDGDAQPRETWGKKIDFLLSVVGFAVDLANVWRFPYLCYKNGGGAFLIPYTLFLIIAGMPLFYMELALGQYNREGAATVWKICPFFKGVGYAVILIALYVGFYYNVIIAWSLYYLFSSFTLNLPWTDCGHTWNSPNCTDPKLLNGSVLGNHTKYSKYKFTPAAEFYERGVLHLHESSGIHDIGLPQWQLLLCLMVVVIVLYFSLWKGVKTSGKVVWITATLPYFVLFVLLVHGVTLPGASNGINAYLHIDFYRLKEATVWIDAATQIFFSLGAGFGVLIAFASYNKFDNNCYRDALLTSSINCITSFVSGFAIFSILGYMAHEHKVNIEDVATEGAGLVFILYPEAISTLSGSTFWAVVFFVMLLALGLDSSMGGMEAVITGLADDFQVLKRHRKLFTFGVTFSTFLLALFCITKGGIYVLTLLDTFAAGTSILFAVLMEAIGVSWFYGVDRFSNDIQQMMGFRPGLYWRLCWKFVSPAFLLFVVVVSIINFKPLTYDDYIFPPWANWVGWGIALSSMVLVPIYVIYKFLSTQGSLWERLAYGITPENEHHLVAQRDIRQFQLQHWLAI
test description: Norepinephrine reuptake inhibition in transporter-transfected HEK-293 cells ([3H]-NE)
Format: cell-based
condition: concentration at which Ratio % is 50%; 6 concentrations 1 nM to 1 μM; read-out: Triple reuptake inhibition (IC50, μM) NET
Recorded IC50 for the following molecules

[
  {
    "chemical structure": "O=C(NCCN1CCC(Cc2ccc(Cl)c(Cl)c2)CC1)c1cc2cc(O)c(O)cc2[nH]1",
    "IC50 (µM)": 5.73
  },
  {
    "chemical structure": "O=C(NCCN1CCC(Cc2ccccc2)CC1)c1nc2ccccc2[nH]1",
    "IC50 (µM)": 3.17
  },
  {
    "chemical structure": "COc1cc2cc(C(=O)NCCN3CCC(Cc4ccc(Cl)c(Cl)c4)CC3)[nH]c2cc1OC",
    "IC50 (µM)": 0.398
  },
  {
    "chemical structure": "O=C(NCCN1CCC(Cc2ccccc2)CC1)c1nc2cc(O)ccc2[nH]1",
    "IC50 (µM)": 0.543
  },
  {
    "chemical structure": "N#Cc1ccc2[nH]c(C(=O)NCCN3CCC(Cc4ccccc4)CC3)cc2c1",
    "IC50 (µM)": 0.371
  },
  {
    "chemical structure": "O=C(NCCN1CCC(Cc2ccccc2)CC1)c1cc2cc(Br)ccc2[nH]1",
    "IC50 (µM)": 7.91
  },
  {
    "chemical structure": "Cn1c(C(=O)NCCN2CCC(Cc3ccccc3)CC2)cc2ccccc21",
    "IC50 (µM)": 0.337
  },
  {
    "chemical structure": "O=C(NCCN1CCC(Cc2ccccc2)CC1)c1cc2cc(F)ccc2[nH]1",
    "IC50 (µM)": 0.561
  },
  {
    "chemical structure": "O=C(NCCN1CCC(Cc2ccccc2)CC1)c1cc2cc(O)c(O)cc2[nH]1",
    "IC50 (µM)": 0.092
  }
]

----------
Recorded Triple reuptake inhibition (Ratio %) SERT for the following molecules
system under test: serotonin transporter (Homo sapiens, UniProt P31645)
Construct: expressed in transfected cells; host or cells: HEK-293
Sequence (P31645 whole entry): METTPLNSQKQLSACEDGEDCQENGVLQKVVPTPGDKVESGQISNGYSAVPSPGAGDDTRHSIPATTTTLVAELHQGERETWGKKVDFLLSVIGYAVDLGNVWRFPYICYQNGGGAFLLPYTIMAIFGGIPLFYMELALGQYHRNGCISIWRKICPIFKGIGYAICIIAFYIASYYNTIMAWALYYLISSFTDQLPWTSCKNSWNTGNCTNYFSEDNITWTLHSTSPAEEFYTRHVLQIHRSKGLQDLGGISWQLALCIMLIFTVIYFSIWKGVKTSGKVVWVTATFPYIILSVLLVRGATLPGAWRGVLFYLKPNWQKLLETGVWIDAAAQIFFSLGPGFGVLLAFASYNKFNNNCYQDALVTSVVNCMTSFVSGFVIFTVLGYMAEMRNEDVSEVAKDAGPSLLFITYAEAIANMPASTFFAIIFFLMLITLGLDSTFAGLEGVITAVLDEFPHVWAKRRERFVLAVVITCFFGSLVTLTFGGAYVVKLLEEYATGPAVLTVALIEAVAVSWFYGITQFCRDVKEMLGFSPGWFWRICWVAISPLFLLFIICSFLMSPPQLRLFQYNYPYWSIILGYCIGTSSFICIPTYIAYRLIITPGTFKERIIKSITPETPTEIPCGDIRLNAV
test description: Serotonin reuptake inhibition in transporter-transfected HEK-293 cells ([3H]-5-HT)
Assay type: cell-based
condition: compound 1 μM; [3H]-5-HT; relative to control without compound (100%), lower = more inhibition
Protocol: To evaluate the reuptake inhibitory effect on dopamine, the dopamine transporter cDNA was transfected using the HEK-293 cell line, and then sub-seeded in a 24 well plate the next day. […] After dissolving the resultant in 1% SDS (0.5 ml), the degree of binding of radioisotope-labeled dopamine to the transporter was measured. […]
measurement kind: Triple reuptake inhibition (Ratio %) SERT

[
  {
    "molecule": "O=C(NCCN1CCN(Cc2ccc(Cl)c(Cl)c2)CC1)c1ccc(Cl)c(Cl)c1",
    "reported value": 63.40
  },
  {
    "molecule": "O=C(NCCN1CCC(Cc2ccccc2)CC1)c1cc2cc(Cl)c(Cl)cc2[nH]1",
    "reported value": 75.98
  },
  {
    "molecule": "O=C(NCCN1CCN(c2cccc(C(F)(F)F)c2)CC1)c1ccc(Cl)c(Cl)c1",
    "reported value": 93.46
  },
  {
    "molecule": "O=C(NCCN1CCC(Cc2ccc(Cl)c(Cl)c2)CC1)c1cc2cc(F)ccc2[nH]1",
    "reported value": 27.71
  },
  {
    "molecule": "CC(CN1CCC(Cc2ccccc2)CC1)NC(=O)c1cc2ccccc2[nH]1 (stereo not drawn)",
    "reported value": 81.76
  },
  {
    "molecule": "CCCCOc1ccc2cc(C(=O)NCCN3CCC(Cc4ccccc4)CC3)[nH]c2c1",
    "reported value": 46.64
  },
  {
    "molecule": "O=C(NCCN1CCC(Cc2ccccc2)CC1)c1cc2cccnc2[nH]1",
    "reported value": 76.79
  },
  {
    "molecule": "O=C(NCCN1CCC(Cc2ccccc2)CC1)c1nc2cc(O)ccc2[nH]1",
    "reported value": 47.72
  },
  {
    "molecule": "Cn1c(C(=O)NCCN2CCC(Cc3ccccc3)CC2)cc2ccccc21",
    "reported value": 67.26
  },
  {
    "molecule": "O=C(NCCN1CCN(c2ccc(Cl)c(Cl)c2)CC1)c1cc2ccccc2[nH]1",
    "reported value": 59.92
  },
  {
    "molecule": "CCCCOc1ccc2[nH]c(C(=O)NCCN3CCC(Cc4ccccc4)CC3)cc2c1",
    "reported value": 53.46
  },
  {
    "molecule": "O=C(NCCN1CCC(c2c[nH]c3ccccc23)CC1)c1cc2ccccc2[nH]1",
    "reported value": 32.42
  },
  {
    "molecule": "O=C(CCN1CCC(Cc2ccccc2)CC1)Nc1cc2ccccc2[nH]1",
    "reported value": 68.60
  },
  {
    "molecule": "O=C(NCCN1CCC(Cc2ccc(F)c(F)c2)CC1)c1ccc2cc(Br)ccc2c1",
    "reported value": 73.84
  },
  {
    "molecule": "O=C(NCCN1CCC(Cc2ccccc2)CC1)c1cc2cc(O)ccc2[nH]1",
    "reported value": 38.79
  },
  {
    "molecule": "O=C(NCCN1CCN(c2cccc(C(F)(F)F)c2)CC1)c1ccc2cc(Br)ccc2c1",
    "reported value": 78.42
  },
  {
    "molecule": "O=C(NCCN1CCN(c2cccc(C(F)(F)F)c2)CC1)c1cc2ccccc2[nH]1",
    "reported value": 86.98
  },
  {
    "molecule": "O=C(NCCN1CCC(Cc2ccccc2)CC1)c1c[nH]c2ccccc12",
    "reported value": 88.39
  }
]
